Attribution: paper PMC9482650

Biological target: HTRA1, Q92743
Sequence (Q92743 360-477): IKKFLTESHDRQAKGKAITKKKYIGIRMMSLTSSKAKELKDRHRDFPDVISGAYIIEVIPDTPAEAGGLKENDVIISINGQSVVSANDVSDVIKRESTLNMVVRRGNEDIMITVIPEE
Assay: holdup assay
Parameters: key: below the threshold = too weak to quantify, mostly under pKd 3.1 to 4
Details: plain residues with an end cap or a label only (N-terminal biotin on a linker: ado-ado)
Assign Criterion met to entries whose pKd meets or exceeds 4; assign Criterion not met to the rest.

{"columns": ["binder", "classLabel"],
 "data": [
  ["LPAHHNATRL [SLC34A1, Q06495]", "Criterion not met"],
  ["VYPNAKVELV [PDLIM4_iso2, P50479;P50479-1]", "Criterion met"],
  ["PEYLGLDVPV [ERBB2, P04626]", "Criterion not met"],
  ["LPHGHSTTRV [NLGN4X, Q8N0W4]", "Criterion not met"],
  ["TACCHSETVV [TGFA, P01135]", "Criterion met"],
  ["ETQVTAETVI [TMEM225B, P0DP42]", "Criterion met"],
  ["KKAPTNEFYA [SDC4, P31431]", "Criterion met"],
  ["PDGQCTVTEV [RNF146, Q9NTX7]", "Criterion met"],
  ["PRAEAEDSFL [PDGFRB, P09619]", "Criterion met"],
  ["HLRARKSEWV [GJD4, Q96KN9]", "Criterion met"]
]}
